# System: BT-549 breast
# experiment: NCI-60 one-dose screen, 48 h (100 = growth as untreated, 0 = no growth, -100 = all killed)
# condition-parameters: 10 µM unless noted
This is part of a sample that, as a whole, favours compounds with a hit. Of some 83,000 tested, about 20% had one in any assay.
measurement-kind: growth (%)

1. Nn1c(=O)n(-c2cccc(C(F)(F)F)c2)c(=O)c2cc(-c3ccc(F)cc3F)ccc21    -6.33
2. CC1(C)CC[C@]2(C(=O)NCCCCCCN(CCCN)CCCN)CC[C@]3(C)C(=CC[C@@H]4[C@@]5(C)CC[C@H](O)C(C)(C)[C@@H]5CC[C@]43C)[C@@H]2C1    102
3. COc1cc(/C=C2/C(=O)Nc3ccc(Cl)cc32)ccc1OCc1ccc(Cl)cc1    101
4. CC(=O)C1=C(C)NC(NNc2ccccc2)=NC1c1ccc([N+](=O)[O-])cc1 (configuration not stated)    103
5. COc1ccc2[nH]cc(-c3nc(N)nnc3-c3cn(C)c4ccc(Br)cc34)c2c1    39.6
6. CC1(C)CC[C@]23CC[C@]4(C)[C@H](CC[C@@H]5[C@@]6(C)CC[C@H](N)C(C)(C)[C@@H]6CC[C@]54C)[C@H]2[C@H]1OC3    88.9
7. C#Cc1nc(/C=C/C(=O)NO)cs1    101
8. C=C(C)[C@@H]1CC[C@]2(COCCCNCCCN)CC[C@]3(C)[C@H](CC[C@@H]4[C@@]5(C)CC[C@H](O)C(C)(C)[C@@H]5CC[C@]43C)[C@@H]12    -77.4
9. CCCC/C(=C\c1ccc(O)c(O)c1)C(=O)NC(Cc1ccccc1)C(=O)C(=O)NCCc1ccc(OC)cc1 (configuration not stated)    84.1
10. CN1CCN(c2ccc(Nc3nc(NCCCNS(=O)(=O)c4ccc(Cl)cc4)c4sccc4n3)cc2)CC1    -70.2
11. CNCCN(C)c1ccc(Nc2cc(NC3CC3)n3ncc(C#N)c3n2)cc1NC(C)=O    -54.7
12. C#CCOc1ccccc1/C=N/Nc1nc(-c2ccc(Cl)cc2)cs1    128
13. NC(=O)n1c(=O)n(-c2cccc(C(F)(F)F)c2)c(=O)c2cc(-c3ccc(F)cc3F)ccc21    -12.5
14. N#Cc1c(-c2cccs2)cc(-c2cnccn2)nc1SCC(=O)N/N=C/c1ccccc1    14.8
15. CCOC(=O)c1cccc(NC2=C(Cl)C(=O)C(C)=C(C)C2=O)c1    131
16. C=C(C)[C@@H]1CC[C@]2(COP(=O)(OCC)OCC)CC[C@]3(C)[C@H](CC[C@@H]4[C@@]5(C)CC[C@H](OP(=O)(OCC)OCC)C(C)(C)[C@@H]5CC[C@]43C)[C@@H]12    65
17. C#CCOc1cccc(-c2nc(N)nc(Nc3ccccc3SSc3ccccc3Nc3nc(N)nc(-c4cccc(OCC#C)c4)n3)n2)c1    58.8

----------
# Tested on: UACC-257 melanoma
# experiment: NCI-60 one-dose screen, 48 h (100 = growth as untreated, 0 = no growth, -100 = all killed)
# condition-parameters: 10 µM unless noted
Compounds without any hit were thinned out: in the full panel of roughly 83,000, 20% have a hit. Activity calls are given as the source filed them. How the source made its calls: active means growth percent below 10; inactive means the rest.
measurement-kind: growth

1) CC1CCN(CC(=O)Nn2c(COc3ccccc3)nc3ccccc3c2=O)CC1    95.4% (inactive)
2) C=C(C)[C@@H]1CC[C@]2(COP(=O)(OCC)OCC)CC[C@]3(C)[C@H](CC[C@@H]4[C@@]5(C)CC[C@H](OP(=O)(OCC)OCC)C(C)(C)[C@@H]5CC[C@]43C)[C@@H]12    46.8% (inactive)
3) Cc1ccc2c(n1)C(=O)C(Cl)=C(Nc1ccc(C(=O)OC(C)(C)C)cc1)C2=O    29.5% [9.25 µM] (inactive)
4) CC(=O)c1cc(C(=O)N2c3ccccc3Sc3ccccc32)n2c1ccc1ccccc12    51.8% (inactive)

Where do the numbers come from? From PubChem BioAssay (NCI).
